Molecular target: Geranylgeranyl transferase type I (Homo sapiens, UniProt P49354+P53609)
Assay: In vitro inhibition against human Geranylgeranyl transferase type I catalyzed by incorporation of [3H]- GGPP (geranylgeranyl pyrophosphate) into biotinylated peptide corresponding to the c-terminus of human Ki-Ras
Parameter: IC50 (nM)
The figure you give is taken to be in nM; do not add the unit.

Would you please look over these solved cases?
Smi	Readout Units	IC50
O=C1CN(Cc2cncn2Cc2cccc(Oc3ccccc3)c2)CCN1c1ccc(C(F)(F)F)cc1	nM	155
N#Cc1ccc(Cn2cncc2CN2CCN(c3cccc(Cl)c3)C(=O)C2)cc1Oc1ccccc1	nM	22
N#Cc1cc(Cn2cncc2CN2CCN(c3cccc(Cl)c3)C(=O)C2)ccc1Oc1ccccc1	nM	809

Asked: Request: IC50, test system Geranylgeranyl transferase type I (Homo sapiens, UniProt P49354+P53609), entry N#Cc1ccc(Cn2cncc2CN2CCN(c3cccc(Cl)c3)C(=O)C2)cc1Oc1cccc(OCCO)c1
Given back: 1.3

Asked: Request: IC50, test system Geranylgeranyl transferase type I (Homo sapiens, UniProt P49354+P53609), entry N#Cc1ccc(Cn2cncc2CN2CCN(c3cccc(Cl)c3)C(=O)C2)cc1Oc1cccnc1
Given back: 52

Asked: Request: IC50, test system Geranylgeranyl transferase type I (Homo sapiens, UniProt P49354+P53609), entry N#Cc1ccc(Cn2cncc2CN2CCN(c3cccc(Cl)c3)C(=O)C2)cc1Oc1ccc(Cl)cc1
Given back: 15

Asked: Request: IC50, test system Geranylgeranyl transferase type I (Homo sapiens, UniProt P49354+P53609), entry N#Cc1ccc(Cn2cncc2CN2CCN(c3cccc(Cl)c3)C(=O)C2)cc1Sc1ccccc1
Given back: 12

Asked: Request: IC50, test system Geranylgeranyl transferase type I (Homo sapiens, UniProt P49354+P53609), entry N#Cc1ccc(Cn2cncc2CN2CCN(c3cccc(Cl)c3)C(=O)C2)cc1Oc1ccc2c(c1)CCCC2
Given back: 290

Asked: Request: IC50, test system Geranylgeranyl transferase type I (Homo sapiens, UniProt P49354+P53609), entry O=C1CN(Cc2cncn2Cc2cccc(Oc3ccccc3)c2)CCN1c1ccc(Cl)cc1
Given back: 136

* * *

Target: Geranylgeranyl transferase type I (Homo sapiens, UniProt P49354+P53609)
Test: Minimal concentration required to inhibit Rap 1a processing (prenylation) in PSN-1 cell
Format: functional, cell-based
Parameter: MIC (µM)
The figure you give is taken to be in µM; do not add the unit.

Would you please look over these solved cases?
Compound	Readout Units	MIC
N#Cc1ccc(Cn2cncc2CN2CCN(c3cccc(Cl)c3)C(=O)C2)cc1Oc1cccnc1	µM	1
N#Cc1ccc(Cn2cncc2CN2CCN(c3cccc(Cl)c3)C(=O)C2)cc1Oc1ccccc1	µM	1
N#Cc1ccc(Cn2cncc2CN2CCN(c3cccc(Cl)c3)C(=O)C2)cc1 [L-778123 FREE BASE]	µM	1
N#Cc1ccc(Cn2cncc2CN2CCN(c3cccc(Cl)c3)C(=O)C2)cc1Oc1ccccc1Cl	µM	0.3

For the next question, use this compound.
Asked: // MIC lookup, key: N#Cc1ccc(Cn2cncc2CN2CCN(c3cccc(Cl)c3)C(=O)C2)cc1Oc1cccc(OCCO)c1
Given back: 3

* * *

Target: Protein farnesyltransferase (Homo sapiens, UniProt P49354+P49356)
Assay: In vitro inhibition against human Farnesyltransferase catalyzed by incorporation of [3H]- FPP into recombinant Ras-CVIM
Format: protein-complex assay
Parameter: IC50 (nM)
The figure you give is taken to be in nM; do not add the unit.

Would you please look over these solved cases?
Smi	Tested System	IC50, nM
N#Cc1ccc(Cn2cncc2CN2CCN(c3cccc(Cl)c3)C(=O)C2)cc1Sc1ccccc1	Protein farnesyltransferase (Homo sapiens, UniProt P49354+P49356)	18
N#Cc1ccc(Cn2cncc2CN2CCN(c3cccc(Cl)c3)C(=O)C2)cc1Oc1cccc(Cl)c1	Protein farnesyltransferase (Homo sapiens, UniProt P49354+P49356)	4
N#Cc1ccc(Cn2cncc2CN2CCN(c3cccc(Cl)c3)C(=O)C2)cc1Oc1cccnc1	Protein farnesyltransferase (Homo sapiens, UniProt P49354+P49356)	11

Asked: // IC50 lookup, key: O=C1CN(Cc2cncn2Cc2cccc(Oc3ccccc3)c2)CCN1c1ccc(C(F)(F)F)cc1
Given back: 5770

Asked: // IC50 lookup, key: N#Cc1cc(Cn2cncc2CN2CCN(c3cccc(Cl)c3)C(=O)C2)ccc1Oc1ccccc1
Given back: 9

Asked: // IC50 lookup, key: N#Cc1ccc(Cn2cncc2CN2CCN(c3cccc(Cl)c3)C(=O)C2)cc1Oc1ccccc1
Given back: 7

Asked: // IC50 lookup, key: O=C1CN(Cc2cncn2Cc2cccc(Oc3ccccc3)c2)CCN1c1ccc(Cl)cc1
Given back: 670

Asked: // IC50 lookup, key: N#Cc1ccc(Cn2cncc2CN2CCN(c3cccc(Cl)c3)C(=O)C2)cc1Oc1ccccc1Cl
Given back: 7
